Please respond with reported MFI for every item in the list.
Target: ESO157 A3 peptide (…)/HLA-A*02:01 complex on T2 cells (human)
Assay: FACS, peptide-pulsed T2 cells
// return just the number, without any unit appended

Dear colleague, please send me the reported MFI for phage clone #148, anti-ESO157/HLA-A*02:01 scFv displayed on phage (scFv, V domains shown) VH: EVQLVQSGAEVKKPGASVKVSCKASGGTFSSYAISWVRQAPGQGLEWMGGIIPIFGTANYAQKFQGRVTITADKSTSTAYMELSSLRSEDTAVYYCARSYWSWTPYDPWGQGTLVTVSS VL: LPVLTQPPSVSVAPGKTARITCGGNNIGSKSVHWYQQKPGQAPVLVIYYDSDRPSGIPERFSGSNSGNTATLTISRVEAGDEADYYCQVWDSSSDHYVFGTGTKVTVLG when you can.
52900

Dear colleague, please send me the reported MFI for phage clone #52, anti-ESO157/HLA-A*02:01 scFv displayed on phage (scFv, V domains shown) VH: QVQLVQSGAEVKKPGASVKVSCKASGYTFTSYGISWVRQAPGQGLEWMGWISAYNGNTNYAQKLQGRVTMTTDTSTSTAYMELRSLRSDDTAVYYCARYSGYYAGDSWGQGTLVTVSS VL: QSVLTQPPSVSGAPGQRVTISCTGSSSNIGAGYDVHWYQQLPGTAPKLLIYGDTNRPSGVPDRISGSKSGTSASLAITGLQAEDEADYYCQSYDSNLYTYVFGTGTKVTVLG when you can.
17700

Dear colleague, please send me the reported MFI for phage clone #66, anti-ESO157/HLA-A*02:01 scFv displayed on phage (scFv, V domains shown) VH: EVQLVESGAEVKRPGASVKVSCKASGYTFTSYGISWVRQAPGQGLEWMGRFIPNLNKGNSAHKFEGRVSFTADKFTNTAYMELRGLKSDDTAVYYCARGDYGSDQWGQGTLVTVSS VL: QSVLTQPPSVSGAPGQRVTISCTGSSSNIGAGYDVHWYQQLPGTAPKLLIYGNSNRPSGVPDRFSGSKSGTSASLAITGLQAEDEADYYCQSYDSSLSGSWVFGGGTKLTVLG when you can.
38400
